- assay.remarks: inhibitors of TNFa-induced NFkB p65 translocation, primary screen, imaging, HUVEC, MLSMR starter and 10KST1 sets (AID 438);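 also: compound added about 3h40 before a 20 min TNFalpha stimulation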
- measurement.parameters: HUVEC TNFa-induced p65 nuclear translocation; measured here: nuclei count (cytotoxicity indicator), at 2.08 µM
Returns rule met if the recorded cell count is greater than or equal to 500, and rule not met otherwise.

> print(dat)
                                   molecule           cat
1  C=CCOc1nc2c(c(=O)n(C)c(=O)n2C)n1Cc1ccc(Cl)cc1Cl      rule met
2  Cc1ccc(N2C(=O)[C@@H]3[C@H](C2=O)C2CCCN2[C@@H]3C(=O)c2ccccc2)cc1 (stereo not given in full)  rule not met
3  CCOC(=O)c1c(C)n(C)c2ccc(OC)c(NC(=O)CN3CCN(Cc4ccccc4)CC3)c12  rule not met

---

- tested.system: Dual specificity protein phosphatase 6 (Homo sapiens)
- assay.remarks: DUSP6 inhibitors restoring Erk phosphorylation by chemical complementation, primary imaging in DUSP6-transfected HeLa (AID 609);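 as to inhibition: phospho-Erk level distribution per well compared with pooled transfected vehicle control wells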
- measurement.parameters: HeLa MKP-3 transfected, phospho-Erk imaging KS statistic; at 10 µM; stronger effect = higher value; cells stimulated with TPA for 15 min
The following compounds are listed with their measured inhibition values.
observation.type: inhibition (%)

> print(dat)
                                    compound  observation.type  result
 1  COc1ccc(Oc2nc3c(c(=O)n(C)c(=O)n3C)n2Cc2cccc(OC)c2)cc1        inhibition      26
 2                       O=c1[nH]nc2n1CCCCC2        inhibition    7.73
 3  Nc1c(C(=O)NCC2CCCO2)c2nc3ccccc3nc2n1/N=C/c1ccncc1 (stereo unspecified)        inhibition    22.8
 4  C=CCOc1nc2c(c(=O)n(C)c(=O)n2C)n1Cc1ccc(Cl)cc1Cl        inhibition   -6.48
 5  CCOc1cccc(-c2nnc3sc(-c4ccc(C)cc4)nn23)c1        inhibition   -9.66
 6  COc1ccc2c(c1)[nH]c1c(=O)n(CC3CCCO3)cnc12 (stereo unspecified)        inhibition   -2.91
 7  COc1ccc(/C(O)=C2/C(=O)C(=O)N(CCN3CCOCC3)C2c2ccccn2)cc1 (stereo unspecified)        inhibition   -7.79
 8              Cc1nnc2c(NC(C)C)nc3ccccc3n12        inhibition    22.7
 9                   Cc1ccc(SCc2nnc(N)s2)cc1        inhibition     -15
10  COc1cc([C@@H]2[C@H]3CN(C)CC=C3C(C#N)=C(N)C2(C#N)C#N)cc2c1OCO2        inhibition    57.9
11      Cc1ccc(OCC(=O)NCC(=O)n2nc(C)cc2C)cc1        inhibition   -7.01

---

- assay.remarks: DUSP6 inhibitors restoring Erk phosphorylation by chemical complementation, primary imaging in DUSP6-transfected HeLa (AID 609)
- measurement.parameters: HeLa MKP-3 transfected, phospho-Erk imaging KS statistic; measured here: nuclear c-Myc green intensity z-score; at 10 µM; cells stimulated with TPA for 15 min
observation.type: z-score

> print(dat)
                                    compound  observation.type   result
 1                O=C(/C=C/c1ccccc1)c1ccccc1           z-score    0.631
 2  O=C(NC1CCCCC1)Nn1c(-c2ccccc2)nc2ccccc2c1=O           z-score    -0.26
 3        Cc1oc2nc(SCCCC(=O)NCCCO)nc(N)c2c1C           z-score    0.376
 4          CCCCCCn1cc(C(=O)O)c(=O)c2ccccc21           z-score     1.61
 5  CCCCCCCCNC(C)C(O)c1ccc(SC(C)C)cc1 (stereo not drawn)           z-score   -0.321
 6      CCOc1cccc(-c2nnc3sc(C4CCCCC4)nn23)c1           z-score    -1.11
 7      Cc1cc(C)n2c3c(c(C#N)c2n1)CC(C)(C)OC3           z-score    -1.04
 8  Cc1ccc(C2/C(=C(\O)c3cnn(-c4ccccc4)c3C)C(=O)C(=O)N2CCN(C)C)o1 (stereo not drawn)           z-score     2.35
 9  Cc1ccc2[nH]c3c(c2c1)CN(C(=O)CN1CCCc2ccccc21)CC3           z-score    -1.61
10          CCCCC(=O)Nc1c(O)c2ccccc2[nH]c1=O           z-score    0.174
11          CCOC(=O)CSc1nc(C)c(C(C)=O)cc1C#N           z-score    -1.06
12  CC1(C)Cc2c(sc3c2C(=O)N(c2ccccc2)C2=NCCCN23)CO1           z-score   -0.486
13  Cc1ccc(S(=O)(=O)N2CCN(c3nc(C(C)C)c4c(c3C#N)CC(C)(C)OC4)CC2)cc1           z-score    0.596
14  CCOC(=O)c1cc2c(=O)n3ccccc3nc2n(Cc2ccccc2Cl)c1=N           z-score    0.973
15  Cn1c(OCc2cccnc2)nc2c1c(=O)n(Cc1ccc(Cl)cc1)c(=O)n2C           z-score   0.0478
16  N=c1c2c(-c3ccccc3)c(-c3ccccc3)n(Cc3ccccc3)c2ncn1CCCn1ccnc1           z-score    0.115
17  CCCOc1ccc(N2C(=O)C3ON(c4ccccc4)C(c4ccc(O)c(OC)c4)C3C2=O)cc1 (stereo not drawn)           z-score   -0.229
18  Cc1ncc([N+](=O)[O-])n1CC(O)CCl (stereo not drawn)           z-score    -1.73
19  COc1ccccc1-c1nn2c(-c3ccc(C(C)(C)C)cc3)nnc2s1           z-score    -1.37
20                 c1ccc2c(CC3=NCCN3)cccc2c1           z-score  -0.0766
21  CC1(C)SC2[C@H](NC(=O)C(NC(=O)N3CCNC3=O)c3ccccc3)C(=O)N2C1C(=O)O (stereo partly drawn)           z-score   -0.196
22  CCOC(=O)C1/C(=N\O)CC(C)(O)C(C(=O)OCC)C1c1ccc(OC)c(OC)c1 (stereo not drawn)           z-score   -0.512
23  Nc1nonc1C(=O)NCCN=Cc1cc(Cc2ccccc2)cc(Br)c1O           z-score     1.06

---

- assay.remarks: inhibitors of E-selectin induction by TNFa, primary screen, imaging, HUVEC, immunofluorescence, MLSMR starter and 10KST1 sets (AID 487);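 also: 100% = median nuclei count of all wells on the same plate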
- measurement.parameters: HUVEC TNFalpha-induced E-selectin immunofluorescence imaging, at 2 µM; measured here: cell number, toxicity
observation.type: nuclei count (%)

> print(dat)
                                   molecule  observation.type  result
1  COc1ccc(C2CC(=O)c3sc(N)nc3C2)cc1 (stereo unspecified)      nuclei count     147
2  CC(C)C1Cc2c(sc3c2c(=O)n(-c2ccccc2)c2nncn32)CO1 (stereo unspecified)      nuclei count     179
3      Oc1ccc(Br)cc1-c1cc(-c2ccccc2F)[nH]n1      nuclei count     116
4  CCOC(=O)C1=C(C)NC(C)=C(C(=O)OC)C1c1cccc(Cl)c1Cl (stereo unspecified)      nuclei count     142
5  Cc1ccc(N2C(=O)C3ON(c4ccccc4)C(c4ccncc4)C3C2=O)cc1 (stereo unspecified)      nuclei count     142
6         CCN(CC)CCOC(=O)C1(C2CCCCC2)CCCCC1      nuclei count     118

---

- assay.remarks: inhibitors of larval lipid processing in zebrafish, primary screen, whole organism, PED6 fluorescence, gall bladder and intestine (AID 686);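 also: larvae 5 to 7 days old with five fish per well; signal comes from phospholipase A2 cleavage of quenched PED6 carried via bile; overnight exposure to compound and PED6 before scoring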
- measurement.parameters: Zebrafish larvae PED6 lipid processing, fluorescence scoring; screened at 20 µM (by protocol)
Activity calls are given as the source filed them.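 Rule for the calls: active = a full or partial loss of lipid-probe fluorescence in the fish gall bladder, intestine or both, judged by eye; inactive = no fluorescence loss, or compound toxic to the fish.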
Outcome codes: 1.0 = active, 0.0 = inactive

> print(dat)
                                    molecule  cat
 1  CCC1(C)Cc2c(sc3nc4n(c(=O)c23)CCS4)CO1 (centres undefined)  0.0
 2  CC(=O)C1=C(O)C(=O)N(c2cccc(C(=O)O)c2)C1c1ccc(F)cc1 (centres undefined)  0.0
 3               Oc1ccc2ccccc2c1/C=N/n1cnnc1  0.0
 4  COc1cccc(Cn2c(Oc3ccccc3)nc3c2c(=O)n(C)c(=O)n3C)c1  0.0
 5  CCOC(=O)c1[nH]c2ccc(Br)cc2c1NC(=O)CCN1CCC(C(=O)OCC)CC1  0.0
 6  Cc1ccc2[nH]c3c(N4CCN(Cc5ccccc5)CC4)ncnc3c2c1  0.0
 7        COc1cc(/C=N/n2c(C)nnc2C)cc(OC)c1OC  0.0
 8             Nc1ccc(Cl)cc1/C(=N/O)c1ccccc1  0.0
 9             Cc1cc(C)c2nc(SCCC#N)nc(C)c2c1  0.0
10         O=C(c1ccccc1F)N1CCC(N2CCCCCC2)CC1  0.0
11  CCCCNC(=O)N1CCOCCOCCN(C(=O)NCCCC)CCOCCOCC1  0.0
12    Cc1c(-c2cccs2)[n+](=O)c2c(n1[O-])CCCC2  0.0
13  CCN(CC)C(=O)c1sc2nc(-c3cccs3)cc(-c3cccs3)c2c1N  1.0
14  Cn1nnc2c(sc3nc(N4CCOCC4)c4c(c32)CCCC4)c1=O  0.0
15  COC(=O)c1cccc(Nc2cc(C)nc(-c3ccccc3O)n2)c1  0.0
16  Cc1coc2c(O)cc3c(c12)OC1(N2CCCCC2)C(=O)NCCCC31 (centres undefined)  0.0
17  COC(=O)c1ccc(C2C(C(=O)c3cc4ccccc4o3)=C(O)C(=O)N2CCCN(C)C)cc1 (centres undefined)  0.0
18  COc1cccc(C2=CC(c3ccccc3)n3nnnc3N2)c1 (centres undefined)  0.0
19  CC1CN(C2CCN(S(=O)(=O)Cc3ccccc3)CC2)CC(C)O1 (centres undefined)  0.0
20        CSc1nc2sc3c(c2c2nnnn12)CC(C)(C)OC3  0.0
21       Clc1ccc(-c2nnc3sc(Cc4cccs4)nn23)cc1  0.0
22               Oc1c(C=Nc2cccnc2)sc2ccccc12  0.0
23      COc1ccc2c(c1)n([O-])c1c([n+]2=O)CCC1  0.0
24                C=C1c2cc(OC)ccc2NC(=O)N1CC  0.0
